Tested on: ZIKV strain FLR
Type: cell-based, Zika virus (ZIKV)
Details: Zika virus, Vero C1008, read-out: IC50 Alone
pIC50: −log10 of the molar value.
METRIC: pIC50

SMILES_INPUT: Cc1cc2c(C(C)C)c(O)c(O)c(C=O)c2c(O)c1-c1c(C)cc2c(C(C)C)c(O)c(O)c(C=O)c2c1O
OBSERVED_VALUE: 6.59

====

Test system: DENV-3-V1043
Experiment: Plaque reduction inhibition assay, DENV-3 in LLC-MK2 cells
Type: cell-based
Settings: Dengue virus, DENV3
# IC50 annotations

SMILES_INPUT: C[C@H]1[C@H]2CC[C@H]3[C@@H]4CC=C5C[C@@H](N(C)C)CC[C@]5(C)[C@H]4CC[C@]23CN1C
STUDY_SYSTEM: DENV-3-V1043
IC50: 7.41 µM

SMILES_INPUT: C[C@@H]1CC[C@@]2(OC1)O[C@H]1[C@@H](O)[C@H]3[C@@H]4CC[C@H]5C[C@@H](O[C@@H]6O[C@H](CO)[C@H](O[C@@H]7O[C@H](CO)[C@@H](O)[C@H](O[C@@H]8OC[C@@H](O)[C@H](O)[C@H]8O)[C@H]7O[C@@H]7O[C@H](CO)[C@H](O)[C@H](O[C@@H]8O[C@H](CO)[C@@H](O)[C@H](O)[C@H]8O)[C@H]7O)[C@H](O)[C@H]6O)[C@H](O)C[C@]5(C)[C@H]4CC[C@]3(C)[C@H]1[C@@H]2C
STUDY_SYSTEM: DENV-3-V1043
IC50: 4.07 µM

SMILES_INPUT: Cc1cc2c(C(C)C)c(O)c(O)c(C=O)c2c(O)c1-c1c(C)cc2c(C(C)C)c(O)c(O)c(C=O)c2c1O
STUDY_SYSTEM: DENV-3-V1043
IC50: 3.7 µM

SMILES_INPUT: COc1cc(/C=C/C(=O)CC(=O)/C=C/c2ccc(O)c(OC)c2)ccc1O
STUDY_SYSTEM: DENV-3-V1043
IC50: 2.09 µM
